- ASSAY_TARGET: TCF4 bHLH domain (Homo sapiens) (UniProt P15884)
- Sequence (P15884 565-624): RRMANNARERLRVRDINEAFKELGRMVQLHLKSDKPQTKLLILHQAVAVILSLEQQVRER
- MEASUREMENT_NOTES: FP
- EXPERIMENTAL_SETUP: ITC: 20 mM Tris pH 7.5, 150 mM NaCl, 25 C
METRIC_NAME: pKd
Keep in mind that pKd stands for -log10 of concentration in molar terms.

Short answer on TCF4 bHLH domain (Homo sapiens) (UniProt P15884) for CCGGTCACGTGTCCTA (double strand) [FAM 16-mer E-box C/C] , pKd: 6.96

---

- ASSAY_TARGET: TCF4 bHLH domain (Homo sapiens) (UniProt P15884)
- MEASUREMENT_NOTES: FP
- EXPERIMENTAL_SETUP: 5mC at strand 1 C8, ITC: 20 mM Tris pH 7.5, 150 mM NaCl, 25 C
METRIC_NAME: Kd (nM)
State the answer as a number, implicitly in nM.

Short answer on TCF4 bHLH domain (Homo sapiens) (UniProt P15884) for CCGGTCACGTGTCCTA (double strand) [FAM 16-mer central CpG M/C] , Kd: 160
